As shown below, each of these compounds has a reported IC50 value.
biological target: TET proteins responsible for tetracycline efflux (Class B tetracycline resistance determinant, strain D1-209) (Escherichia coli); construct: Everted vesicles, to which the TET proteins responsible for tetracycline efflux are attached; endogenous in cells; host or cells: E. coli strain D1-209 (everted membrane vesicles); experiment: biochemical; design: species or system E. coli; settings: uptake at 2.5 minutes, about 4 μM 3H-tetracycline; read-out: IC50
Sequence (P02980 whole entry): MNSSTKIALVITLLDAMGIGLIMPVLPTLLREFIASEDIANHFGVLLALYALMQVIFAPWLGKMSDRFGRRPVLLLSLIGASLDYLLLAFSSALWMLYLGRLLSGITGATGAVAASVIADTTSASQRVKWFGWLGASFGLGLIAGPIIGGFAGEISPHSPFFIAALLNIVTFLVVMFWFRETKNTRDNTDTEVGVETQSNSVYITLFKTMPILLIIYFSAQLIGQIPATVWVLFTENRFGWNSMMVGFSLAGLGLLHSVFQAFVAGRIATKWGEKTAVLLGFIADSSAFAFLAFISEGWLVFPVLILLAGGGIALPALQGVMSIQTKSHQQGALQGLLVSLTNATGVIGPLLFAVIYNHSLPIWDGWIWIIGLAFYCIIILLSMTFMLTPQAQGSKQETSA
quantity kind: IC50

# compound, quantity kind, result
data = [
    ("CC1c2cccc(O)c2C(=O)C2=C(O)C3(O)C(=O)C(C(N)=O)=C(O)[C@@H](N(C)C)C3[C@@H](OCCCN)C21 (some centres unmarked) [Cmpd 7]", "IC50", "6.4 µM"),
    ("CN(C)[C@@H]1C(O)=C(C(N)=O)C(=O)C2(O)C(O)=C3C(=O)c4c(O)cccc4C(CSC4CCCC4)C3[C@H](OC(=O)C3CCCC3)C12 (some centres unmarked) [Cmpd 10]", "IC50", "> 30 µM"),
]

====

Known MIC of a selection of compounds
test system: E. coli Tc^s (MI 300-225); assay: susceptibility testing MIC/MLC, drug alone; assay type: cell-based; conditions: Tc^s, 2nd column

# compound, study system, value operator, MIC, µg
records = [
    ("CN(C)c1ccc(O)c2c1C[C@H]1C[C@H]3[C@H](N(C)C)C(=O)C(C(N)=O)=C(O)[C@@]3(O)C(=O)C1=C2O [Minocycline, reference compound]", "E. coli Tc^s (MI 300-225)", "<", 4),
    ("CN(C)C1C(O)=C(C(N)=O)C(=O)C2(O)C(O)=C3C(=O)c4c(O)cccc4C(C)(O)C3CC12 (stereo not shown) [Tetracycline, reference compound]", "E. coli Tc^s (MI 300-225)", "=", 40),
    ("CC(C)SCC1c2cccc(O)c2C(=O)C2=C(O)C3(O)C(=O)C(C(N)=O)=C(O)C(N(C)C)C3C(O)C21 (stereo not shown)", "E. coli Tc^s (MI 300-225)", "=", 60),
    ("CCSCC1c2cccc(O)c2C(=O)C2=C(O)C3(O)C(=O)C(C(N)=O)=C(O)C(N(C)C)C3CC21 (stereo not shown) [Ethyl, 6-deoxy-13-(ethylmercapto) tetracycline]", "E. coli Tc^s (MI 300-225)", "=", 60),
]

====

test system: S. aureus Tc^r (RN4250); type: cell-based; settings: Tc^r RN4250; kills 99.9%
Reported MLC values follow for various compounds

# compound, value operator, MLC [µg]
records = [
    ("CN(C)c1ccc(O)c2c1C[C@H]1C[C@H]3[C@H](N(C)C)C(=O)C(C(N)=O)=C(O)[C@@]3(O)C(=O)C1=C2O [Minocycline, reference compound]", ">", 80),
    ("CC(C)SCC1c2cccc(O)c2C(=O)C2=C(O)C3(O)C(=O)C(C(N)=O)=C(O)C(N(C)C)C3C(O)C21 (stereo not shown)", "=", 8),
    ("CCSCC1c2cccc(O)c2C(=O)C2=C(O)C3(O)C(=O)C(C(N)=O)=C(O)C(N(C)C)C3CC21 (stereo not shown) [Ethyl, 6-deoxy-13-(ethylmercapto) tetracycline]", "=", 30),
    ("CN(C)C1C(O)=C(C(N)=O)C(=O)C2(O)C(O)=C3C(=O)c4c(O)cccc4C(C)(O)C3CC12 (stereo not shown) [Tetracycline, reference compound]", "=", 100),
]
